Recorded values, source patent US20200079833A1.

Biological target: T1, glucose-dependent insulinotropic peptide (gastric inhibitory polypeptide) receptor (human, UniProt P48546 22-466)
T1 sequence (looked up): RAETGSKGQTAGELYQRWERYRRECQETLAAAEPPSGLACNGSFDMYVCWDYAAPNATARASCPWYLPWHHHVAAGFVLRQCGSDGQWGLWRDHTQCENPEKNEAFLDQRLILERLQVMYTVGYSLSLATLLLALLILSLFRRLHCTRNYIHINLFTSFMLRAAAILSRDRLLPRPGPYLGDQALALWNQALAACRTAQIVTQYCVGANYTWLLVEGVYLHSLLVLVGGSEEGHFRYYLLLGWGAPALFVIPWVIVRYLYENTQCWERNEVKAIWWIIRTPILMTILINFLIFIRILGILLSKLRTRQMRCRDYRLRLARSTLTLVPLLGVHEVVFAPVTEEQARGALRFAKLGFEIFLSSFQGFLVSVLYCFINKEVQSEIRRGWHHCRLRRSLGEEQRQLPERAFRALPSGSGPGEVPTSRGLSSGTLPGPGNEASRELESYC
Experiment: cell-based or functional assay
Starred links: 1 amine or outer side, 2 acyl side, 3 side chain; linkers in the order of their positions; H or OH if unused. Non-standard residues stand in square brackets, D forms with d. Groups on a side chain read outwards from the residue. Primed or numbered codes have the meaning given here. No end group written: not given here. *: point of attachment. γGlu = O=C(O)[C@H](CCC(=O)[*:2])N[*:1]; Stearoyl = CCCCCCCCCCCCCCCCCC(=O)*; αMeF = C[C@](N)(Cc1ccccc1)C(=O)O; αMeK = C[C@](N)(CCCCN)C(=O)O; αMeS = C[C@](N)(CO)C(=O)O; PEG2′ = not defined here; Aib = CC(C)(N)C(=O)O
MEASURED PARAMETER: Primary assay EC50 (cAMP), n2 (nM)

[[record]]
binder = "H[Aib]EGSFTSDV[αMeS]S[αMeF]LEGEAAK([PEG2′-PEG2′-γGlu-Stearoyl])E[αMeF]IA[αMeF]VV[αMeK]GG-NH2 [SEQ ID NO 45]"
numeric_readout = 26

[[record]]
binder = "H[Aib]EGS[αMeF]TSDV[αMeS]S[αMeF]LEGEAAK([PEG2′-PEG2′-γGlu-Stearoyl])E[αMeF]IAWVV[αMeK]GG-NH2 [SEQ ID NO 49]"
numeric_readout = 25

[[record]]
binder = "H[Aib]EGS[αMeF]TSDV[αMeS]SYLEGEAAK([PEG2′-PEG2′-PEG2′-Stearoyl])E[αMeF]IA[αMeF]VV[αMeK]GG-NH2 [SEQ ID NO 53]"
numeric_readout = 26


(I) H[Aib]EGS[αMeF]TSDVSK([PEG2′-PEG2′-PEG2′-Stearoyl])YLEGEAAKE[αMeF]IA[αMeF]VVEGG-NH2 [SEQ ID NO 61]
(II) HXEGTFTSDVSSYLEGQAAKEFIAWLVKGRK (Aib 2; K(ε-γE-Palmitoyl) after R30; C-terminal amide) [SEQ ID NO 5]
Q) For this pair, I and II , which shows a numerically higher Primary assay EC50 (cAMP), n2? State your choice using its label.
A) II
(II: 81 nM, I: 25 nM)
